system: 633275-114-R-J1-PDC complex spheroids, viability; test: Anticancer human tumor 633275-114-R-J1-PDC patient-derived endometrial adenocarcinoma cell line growth inhibition [GQUAD]; conditions: curve of first compound; second compound 1 µM
# IC50 per entry

Worked examples follow.
Molecule	IC50
Nc1ccn(C2OC(CO)C(O)C2(F)F)c(=O)n1 (stereo not given) + Cc1[nH]c2ccc(F)cc2c1-c1nc2c3cccnc3c3ncccc3c2[nH]1	< 0.0316 µM
Cc1cccc(N(C)C(=O)C2C(O)CCN2c2nc(C)cc(C(F)(F)F)c2C#N)c1 (stereo not given) + CN(C)c1ccc(Nc2c3ccc(NC(=O)CCN4CCCC4)cc3nc3cc(NC(=O)CCN4CCCC4)ccc23)cc1	> 10 µM
O=c1[nH]cc(F)c(=O)[nH]1 + Cc1[nH]c2ccc(F)cc2c1-c1nc2c3cccnc3c3ncccc3c2[nH]1	> 10 µM

Problem: Sample C=CC(=O)N1CCN(c2nc(=O)n(-c3c(C)ccnc3C(C)C)c3nc(-c4c(O)cccc4F)c(F)cc23)C(C)C1 (stereo not given) + Cc1[nH]c2ccc(F)cc2c1-c1nc2c3cccnc3c3ncccc3c2[nH]1 — what was its IC50?
Result: > 10 µM

Problem: Please do the same for O=C(c1cc(Cc2n[nH]c(=O)c3ccccc23)ccc1F)N1CCN(C(=O)C2CC2)CC1 + CN(C)c1ccc(Nc2c3ccc(NC(=O)CCN4CCCC4)cc3nc3cc(NC(=O)CCN4CCCC4)ccc23)cc1 as well.
Result: > 10 µM

* * *

tested on: 633275-114-R-J1-PDC complex spheroids, viability; assay: Anticancer human tumor 633275-114-R-J1-PDC cell line growth inhibition [GQUAD]; conditions: curve of first compound; second compound 1 µM;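 further: spheroids exposed to the agents for seven days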
pIC50: −log10 of the molar value.
Measurement name: pIC50

Worked examples follow.
Molecule	pIC50
CCc1c2c(nc3ccc(O)cc13)-c1cc3c(c(=O)n1C2)COC(=O)[C@]3(O)CC + CN(C)c1ccc(Nc2c3ccc(NC(=O)CCN4CCCC4)cc3nc3cc(NC(=O)CCN4CCCC4)ccc23)cc1	8.56
C#Cc1c(F)ccc2cc(O)cc(-c3ncc4c(N5CC6CCC(C5)N6)nc(OCC56CCCN5CC(F)C6)nc4c3F)c12 (stereo not drawn) + Cc1[nH]c2ccc(F)cc2c1-c1nc2c3cccnc3c3ncccc3c2[nH]1	< 5.00
CC[C@@]1(O)C(=O)OCc2c1cc1n(c2=O)Cc2cc3c(CN(C)C)c(O)ccc3nc2-1 + Cc1cnc(CNC(=O)c2c(=O)c3ccc(N4CCCN(C)CC4)nc3n3c2sc2ccccc23)cn1	> 9.00
COc1ncnc(C2CC2)c1-c1ncc2cnn(Cc3ccc(-c4nc(C(F)(F)F)cn4C(C)C)cc3)c2n1 + Cc1[nH]c2ccc(F)cc2c1-c1nc2c3cccnc3c3ncccc3c2[nH]1	< 5.00

Then this molecule:
Problem: Sample Nc1ccn(C2OC(CO)C(O)C2(F)F)c(=O)n1 (stereo not drawn) + CN(C)c1ccc(Nc2c3ccc(NC(=O)CCN4CCCC4)cc3nc3cc(NC(=O)CCN4CCCC4)ccc23)cc1 — what was its pIC50?
Result: > 7.50

* * *

# pIC50 per entry
Test system: 633275-114-R-J1-PDC complex spheroids, viability
Test: Anticancer human tumor 633275-114-R-J1-PDC cell line growth inhibition [GQUAD];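 further: spheroids exposed to the agents for seven days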
Conditions: curve of first compound; second compound 3.16 µM
Excerpt: DNA G-quadruplex Stabilizer Agents in Combinations in Complex Spheroids A high-throughput screen of multi-cell type tumor spheroids was designed to identify active combinations of DNA G-quadruplex stabilizer agents and targeted small molecules. […] Compounds. […] If the clinical Cmax for an agent had not been determined, the highest concentration tested was 10 microM. […]
pIC50: −log10 of the molar value.

Compound	Target or system	Value
Nc1ccn(C2OC(CO)C(O)C2(F)F)c(=O)n1 (stereo not drawn) + Cc1[nH]c2ccc(F)cc2c1-c1nc2c3cccnc3c3ncccc3c2[nH]1	633275-114-R-J1-PDC complex spheroids, viability	> 7.50

Problem: Sample C=CCn1c(=O)c2cnc(Nc3ccc(N4CCN(C)CC4)cc3)nc2n1-c1cccc(C(C)(C)O)n1 + Cc1cnc(CNC(=O)c2c(=O)c3ccc(N4CCCN(C)CC4)nc3n3c2sc2ccccc23)cn1 — what was its pIC50?
Result: > 7.50

Problem: Please do the same for CC[C@@]1(O)C(=O)OCc2c1cc1n(c2=O)Cc2cc3c(CN(C)C)c(O)ccc3nc2-1 + Cc1cnc(CNC(=O)c2c(=O)c3ccc(N4CCCN(C)CC4)nc3n3c2sc2ccccc23)cn1 as well.
Result: > 9.00

* * *

# IC50 per entry
test system: 633275-114-R-J1-PDC complex spheroids, viability; experiment: Anticancer human tumor 633275-114-R-J1-PDC cell line growth inhibition [GQUAD]; conditions: curve of first compound; second compound 0.316 µM;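 further: spheroids exposed to the agents for seven days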

Worked examples follow.
Molecule	IC50
COc1ncnc(C2CC2)c1-c1ncc2cnn(Cc3ccc(-c4nc(C(F)(F)F)cn4C(C)C)cc3)c2n1 + CN(C)c1ccc(Nc2c3ccc(NC(=O)CCN4CCCC4)cc3nc3cc(NC(=O)CCN4CCCC4)ccc23)cc1	> 10 µM
CC1COCCN1c1cc(C2(S(C)(=N)=O)CC2)nc(-c2ccnc3[nH]ccc23)n1 (stereo unspecified) + Cc1cnc(CNC(=O)c2c(=O)c3ccc(N4CCCN(C)CC4)nc3n3c2sc2ccccc23)cn1	< 0.0316 µM
C#Cc1c(F)ccc2cc(O)cc(-c3ncc4c(N5CC6CCC(C5)N6)nc(OCC56CCCN5CC(F)C6)nc4c3F)c12 (stereo unspecified) + CN(C)c1ccc(Nc2c3ccc(NC(=O)CCN4CCCC4)cc3nc3cc(NC(=O)CCN4CCCC4)ccc23)cc1	> 10 µM
C=CCn1c(=O)c2cnc(Nc3ccc(N4CCN(C)CC4)cc3)nc2n1-c1cccc(C(C)(C)O)n1 + Cc1cnc(CNC(=O)c2c(=O)c3ccc(N4CCCN(C)CC4)nc3n3c2sc2ccccc23)cn1	< 0.0316 µM
CC(C)n1c(=O)n(C)c2cnc3cc(F)c(-c4ccc(OCCCN5CCCCC5)nc4)cc3c21 + CN(C)c1ccc(Nc2c3ccc(NC(=O)CCN4CCCC4)cc3nc3cc(NC(=O)CCN4CCCC4)ccc23)cc1	> 10 µM

Problem: Sample O=C(c1cc(Cc2n[nH]c(=O)c3ccccc23)ccc1F)N1CCN(C(=O)C2CC2)CC1 + Cc1[nH]c2ccc(F)cc2c1-c1nc2c3cccnc3c3ncccc3c2[nH]1 — what was its IC50?
Result: > 10 µM

* * *

test system: 633275-114-R-J1-PDC complex spheroids, viability; experiment: Anticancer human tumor 633275-114-R-J1-PDC cell line growth inhibition [GQUAD]; settings: second compound 0.1 µM; first compound 0.000999 µM; stronger effect = lower value;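 further: spheroids exposed to the agents for seven days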;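 on viability, T/C: percent of DMSO vehicle control viability which is 100%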
Measurement name: viability, T/C (%)
API: value field is a number in %; no unit string.

Worked examples follow.
Compound	Measurement name	Value
Cc1[nH]c2ccccc2c1CCNCc1ccc(/C=C/C(=O)NO)cc1 + Cc1[nH]c2ccc(F)cc2c1-c1nc2c3cccnc3c3ncccc3c2[nH]1	viability, T/C	90.6
Cn1ncnc1[C@H]1c2n[nH]c(=O)c3cc(F)cc(c23)N[C@@H]1c1ccc(F)cc1 + Cc1cnc(CNC(=O)c2c(=O)c3ccc(N4CCCN(C)CC4)nc3n3c2sc2ccccc23)cn1	viability, T/C	47.9
CCc1c2c(nc3ccc(O)cc13)-c1cc3c(c(=O)n1C2)COC(=O)[C@]3(O)CC + Cc1cnc(CNC(=O)c2c(=O)c3ccc(N4CCCN(C)CC4)nc3n3c2sc2ccccc23)cn1	viability, T/C	46.3
CCc1c2c(nc3ccc(O)cc13)-c1cc3c(c(=O)n1C2)COC(=O)[C@]3(O)CC + Cc1[nH]c2ccc(F)cc2c1-c1nc2c3cccnc3c3ncccc3c2[nH]1	viability, T/C	71.1
CCc1c2c(nc3ccc(O)cc13)-c1cc3c(c(=O)n1C2)COC(=O)[C@]3(O)CC + CN(C)c1ccc(Nc2c3ccc(NC(=O)CCN4CCCC4)cc3nc3cc(NC(=O)CCN4CCCC4)ccc23)cc1	viability, T/C	77.6

Problem: Please provide the recorded viability, T/C for Cc1[nH]c2ccccc2c1CCNCc1ccc(/C=C/C(=O)NO)cc1 + Cc1cnc(CNC(=O)c2c(=O)c3ccc(N4CCCN(C)CC4)nc3n3c2sc2ccccc23)cn1 , tested on 633275-114-R-J1-PDC complex spheroids, viability.
Result: 56.1

Problem: Please do the same for CC[C@@]1(O)C(=O)OCc2c1cc1n(c2=O)Cc2cc3c(CN(C)C)c(O)ccc3nc2-1 + CN(C)c1ccc(Nc2c3ccc(NC(=O)CCN4CCCC4)cc3nc3cc(NC(=O)CCN4CCCC4)ccc23)cc1 as well.
Result: 93.4

Problem: Please do the same for Cn1ncnc1[C@H]1c2n[nH]c(=O)c3cc(F)cc(c23)N[C@@H]1c1ccc(F)cc1 + Cc1[nH]c2ccc(F)cc2c1-c1nc2c3cccnc3c3ncccc3c2[nH]1 as well.
Result: 93
